B1: GAGE1 (parent)
chain: RPRRYVQPPEMIGPMRPEQFSDEV

# Variants of: B1
# assay.explanation: protein stability index of a GFP-peptide fusion (GPS, HEK-293T) (PSI 1-6); higher = more stable;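 also: lentivirally expressed fusions sorted by FACS into six bins by GFP to DsRed ratio, PSI derived from sequencing read proportions per bin multiplied by bin number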
# experimental.parameters: c terminus: a fixed tail appended
metric: protein stability index
Give your answer as a number; write no unit.

The cases that follow already have their protein stability index on record.
RPGRYVQPPEMIGPMRPEQFSDEV : 3.96
RPQRYVQPPEMIGPMRPEQFSDEV : 4.11
RPRRYVQPPEMIGPMRPEQFYDEV : 3.63
RPRRYVQPPEMITPMRPEQFSDEV : 4.33
RPRRYVQPPEMIGPMRPEQFFDEV : 2.97
RPRRYVQPPEMIGPMRPMQFSDEV : 3.45
RPRRYVQRPEMIGPMRPEQFSDEV : 3.93
RPRRYVQPPEMIGPMRPEQFSDET : 4.17

Consider now this further variant.
# get_value(readout='protein stability index', item= "RPRRYVQPPEMIGPMRPEQMSDEV" )
4.08
